Target: Gastrin/cholecystokinin type B receptor (Oryctolagus cuniculus)
Assay: In vitro inhibition of gastrin-induced [Ca2+] cytosolic elevation in isolated rabbit parietal cells
pIC50: −log10 of the molar value.
Observable: pIC50

Compound	Numeric value
O=C(O)CC[C@H](NC(=O)CCC(NC(=O)c1cc(Cl)cc(Cl)c1)C(=O)N1CCC2(CCCC2)CC1)C(=O)Nc1cccc2c1CCCC2 (some centres not stated)	7.80
O=C(O)C[C@@H](NC(=O)CCC(NC(=O)c1cc(Cl)cc(Cl)c1)C(=O)N1CCC2(CCCC2)CC1)C(=O)N1CCC2(CCCC2)CC1 (some centres not stated)	6.70

1 = O=C(O)CC[C@@H](NC(=O)CCC(NC(=O)c1cc(Cl)cc(Cl)c1)C(=O)N1CCC2(CCCC2)CC1)C(=O)N1CCC2(CCCC2)CC1 (some centres not stated)
2 = O=C(O)CC[C@H](NC(=O)CCC(NC(=O)c1cc(Cl)cc(Cl)c1)C(=O)N1CCC2(CCCC2)CC1)C(=O)N1CCC2CCCCC2C1 (some centres not stated)
Kindly compare 1 with 2 and tell me which has the lower pIC50 figure. Give the label of your selection. 1

P = O=C(O)CC[C@@H](NC(=O)CCC(NC(=O)c1cc(Cl)cc(Cl)c1)C(=O)N1CCC2(CCCC2)CC1)C(=O)NCc1ccccc1 (some centres not stated)
Q = O=C(CCC(NC(=O)c1cc(Cl)cc(Cl)c1)C(=O)N1CCC2(CCCC2)CC1)Nc1ccc(C(=O)O)cc1 (configuration not stated)
Kindly compare P with Q and tell me which has the lower pIC50 figure. Give the label of your selection. Q

###

Target: Gastrin/cholecystokinin type B receptor (Cavia porcellus)
Experiment: Inhibition of binding of [3H]N-Me-N-Leu-CCK-8 to cholecystokinin type B receptor in guinea pig brain cortex
Observable: IC50 (µM)

Worked examples follow.
Compound	IC50, µM
CC(NC(=O)CCC(NC(=O)c1cc(Cl)cc(Cl)c1)C(=O)N1CCC2(CCCC2)CC1)C(=O)O (stereo not given)	1.25
O=C(CCC(NC(=O)c1cc(Cl)cc(Cl)c1)C(=O)N1CCC2(CCCC2)CC1)NC(Cc1c[nH]c2ccccc12)C(=O)O (stereo not given)	0.049
O=C(O)CC[C@@H](NC(=O)CCC(NC(=O)c1cc(Cl)cc(Cl)c1)C(=O)N1CCC2(CCCC2)CC1)C(=O)Nc1cccc2ccccc12 (stereo not given in full)	0.085

I = O=C(O)C[C@H](NC(=O)CCC(NC(=O)c1cc(Cl)cc(Cl)c1)C(=O)N1CCC2(CCCC2)CC1)C(=O)Nc1cccc2ccccc12 (stereo not given in full)
II = CCCCCN(CCCCC)C(=O)[C@H](CCC(=O)O)NC(=O)CCC(NC(=O)c1cc(Cl)cc(Cl)c1)C(=O)N1CCC2(CCCC2)CC1 (stereo not given in full)
Kindly compare I with II and tell me which has the lower IC50 figure. Give the label of your selection. II
(II: 0.135 µM, I: 0.215 µM)

###

Target: Gastrin/cholecystokinin type B receptor (Oryctolagus cuniculus)
Assay: In vitro inhibition of gastrin-induced [Ca2+] cytosolic elevation in isolated rabbit parietal cells
Observable: IC50 (nM)

Molecule	Observable	Unit info	Numeric value
O=C(CC[C@H](NC(=O)CCC(NC(=O)c1cc(Cl)cc(Cl)c1)C(=O)N1CCC2(CCCC2)CC1)C(=O)O)Nc1cccc2ccccc12 (stereo not given in full)	IC50	nM	12

1 = O=C(O)C[C@H](NC(=O)CCC(NC(=O)c1cc(Cl)cc(Cl)c1)C(=O)N1CCC2(CCCC2)CC1)C(=O)Nc1cccc2ccccc12 (stereo not given in full)
2 = O=C(O)CC[C@H](NC(=O)CCC(NC(=O)c1cc(Cl)cc(Cl)c1)C(=O)N1CCC2(CCCC2)CC1)C(=O)Nc1cccc2ncccc12 (stereo not given in full)
3 = O=C(O)CC[C@H](NC(=O)CCC(NC(=O)c1cc(Cl)cc(Cl)c1)C(=O)N1CCC2(CCCC2)CC1)C(=O)N1CCc2ccccc2C1 (stereo not given in full)
4 = O=C(CCC(NC(=O)c1cc(Cl)cc(Cl)c1)C(=O)N1CCC2(CCCC2)CC1)N[C@H](Cc1c[nH]c2ccccc12)C(=O)O (stereo not given in full)
5 = O=C(O)CNC(=O)CCC(NC(=O)c1cc(Cl)cc(Cl)c1)C(=O)N1CCC2(CCCC2)CC1 (stereo not given)
Rank descending by IC50. Answer by writing out the labels in the requested order. 5, 2, 3, 1, 4

P = O=C(CCC(NC(=O)c1cc(Cl)cc(Cl)c1)C(=O)N1CCC2(CCCC2)CC1)Nc1ccccc1C(=O)O (stereo not given)
Q = O=C(O)CC[C@@H](NC(=O)c1cc(Cl)cc(Cl)c1)C(=O)N1CCC2(CCCC2)CC1
Task for the reader: decide whether P or Q has the larger IC50. Give the label of your selection. Q

1 = O=C(CC(NC(=O)CCC(NC(=O)c1cc(Cl)cc(Cl)c1)C(=O)N1CCC2(CCCC2)CC1)C(=O)O)NCc1ccccc1 (stereo not given)
2 = O=C(O)CC[C@H](NC(=O)CCC(NC(=O)c1cc(Cl)cc(Cl)c1)C(=O)N1CCC2(CCCC2)CC1)C(=O)N1CCC2(CCCC2)CC1 (stereo not given in full)
3 = O=C(CCC(NC(=O)c1cc(Cl)cc(Cl)c1)C(=O)N1CCC2(CCCC2)CC1)N[C@H](Cc1cccc2ccccc12)C(=O)O (stereo not given in full)
4 = O=C(O)CC[C@H](NC(=O)CCC(NC(=O)c1cc(Cl)cc(Cl)c1)C(=O)N1CCC2(CCCC2)CC1)C(=O)Nc1ccc2c(c1)CCC2 (stereo not given in full)
// ascending sort on recorded IC50 Answer by writing out the labels in the requested order. 3, 2, 1, 4

###

Target: Gastrin/cholecystokinin type B receptor (Oryctolagus cuniculus)
Assay: In vitro inhibition of gastrin-induced [Ca2+] cytosolic elevation in isolated rabbit parietal cells
pIC50: −log10 of the molar value.
Observable: pIC50

Compound	pIC50
O=C(CCC(NC(=O)c1cc(Cl)cc(Cl)c1)C(=O)N1CCC2(CCCC2)CC1)N[C@H](Cc1ccc2ccccc2c1)C(=O)O (some centres not stated)	7.62
CN(Cc1ccccc1)C(=O)CC[C@H](NC(=O)CCC(NC(=O)c1cc(Cl)cc(Cl)c1)C(=O)N1CCC2(CCCC2)CC1)C(=O)O (some centres not stated)	7.26
CCCCC(NC(=O)CCC(NC(=O)c1cc(Cl)cc(Cl)c1)C(=O)N1CCC2(CCCC2)CC1)C(=O)O (configuration not stated)	7.02
O=C(CCC(NC(=O)c1cc(Cl)cc(Cl)c1)C(=O)N1CCC2(CCCC2)CC1)N[C@H](CC1CCCCC1)C(=O)O (some centres not stated)	6.85
O=C(O)CCC(Cc1ccccc1)NC(=O)CCC(NC(=O)c1cc(Cl)cc(Cl)c1)C(=O)N1CCC2(CCCC2)CC1 (configuration not stated)	7.07

A = CCCN(CCC)C(=O)[C@H](CCC(=O)O)NC(=O)CCC(NC(=O)c1cc(Cl)cc(Cl)c1)C(=O)N1CCC2(CCCC2)CC1 (some centres not stated)
B = O=C(CCC(NC(=O)c1cc(Cl)cc(Cl)c1)C(=O)N1CCC2(CCCC2)CC1)N[C@@H](Cc1c[nH]c2ccccc12)C(=O)O (some centres not stated)
Task for the reader: decide whether A or B has the larger pIC50. Give the label of your selection. B
(B: 7.46, A: 6.92)

###

Target: Gastrin/cholecystokinin type B receptor (Oryctolagus cuniculus)
Assay: In vitro inhibition of gastrin-induced [Ca2+] cytosolic elevation in isolated rabbit parietal cells
pIC50: −log10 of the molar value.
Observable: pIC50

Compound	pIC50
O=C(CCC(NC(=O)c1cc(Cl)cc(Cl)c1)C(=O)N1CCC2(CCCC2)CC1)NC(C(=O)O)c1ccccc1 (configuration not stated)	7.10

1 = CN(CC(=O)O)C(=O)CCC(NC(=O)c1cc(Cl)cc(Cl)c1)C(=O)N1CCC2(CCCC2)CC1 (configuration not stated)
2 = CN(Cc1ccccc1)C(=O)C[C@H](NC(=O)CCC(NC(=O)c1cc(Cl)cc(Cl)c1)C(=O)N1CCC2(CCCC2)CC1)C(=O)O (some centres not stated)
Kindly compare 1 with 2 and tell me which has the lower pIC50 figure. Give the label of your selection. 1
(1: 5.55, 2: 7.36)

###

Target: Gastrin/cholecystokinin type B receptor (Oryctolagus cuniculus)
Experiment: In vitro inhibition of gastrin-induced [Ca2+] cytosolic elevation in isolated rabbit parietal cells
pIC50: −log10 of the molar value.
Observable: pIC50

Worked examples follow.
Compound	Study target	Observable	Numeric value
O=C(O)CC[C@@H](NC(=O)CCC(NC(=O)c1cc(Cl)cc(Cl)c1)C(=O)N1CCC2(CCCC2)CC1)C(=O)NCCCc1ccccc1 (some centres undefined)	Gastrin/cholecystokinin type B receptor (Oryctolagus cuniculus)	pIC50	6.93
O=C(O)CC[C@@H](NC(=O)CCC(NC(=O)c1cc(Cl)cc(Cl)c1)C(=O)N1CCC2(CCCC2)CC1)C(=O)Nc1cccc2ccccc12 (some centres undefined)	Gastrin/cholecystokinin type B receptor (Oryctolagus cuniculus)	pIC50	7.77

P = CC(NC(=O)CCC(NC(=O)c1cc(Cl)cc(Cl)c1)C(=O)N1CCC2(CCCC2)CC1)C(=O)O (centres undefined)
Q = O=C(O)CC[C@H](NC(=O)CCC(NC(=O)c1cc(Cl)cc(Cl)c1)C(=O)N1CCC2(CCCC2)CC1)C(=O)NC1CCCc2ccccc21 (some centres undefined)
Kindly compare P with Q and tell me which has the lower pIC50 figure. Give the label of your selection. P
(P: 6.00, Q: 8.05)
